I'd appreciate it if you could supply pKd values for the items below.
target-under-test: T1, His-tagged mouse CD38 (ACRO Biosystems #CD8-M5223) (mouse, UniProt P56528 45-304)
T1 construct: bought recombinant protein with His tag; also called Murine
T1 sequence (looked up): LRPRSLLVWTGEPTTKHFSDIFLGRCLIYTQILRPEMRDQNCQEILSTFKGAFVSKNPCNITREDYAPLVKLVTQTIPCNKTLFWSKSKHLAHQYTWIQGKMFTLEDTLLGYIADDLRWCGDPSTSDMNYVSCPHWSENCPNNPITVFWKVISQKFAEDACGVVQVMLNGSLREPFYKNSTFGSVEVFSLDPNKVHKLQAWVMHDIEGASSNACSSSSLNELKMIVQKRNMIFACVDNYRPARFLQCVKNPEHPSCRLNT
procedure-text: SPR, captured scFv-Fc, His-CD38 analyte;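 also: SPR on a Carterra LSA, scFv-Fc captured by anti-human Fc on HC30M chip, His-tagged CD38 (human, mouse, cynomolgus) flowed as analyte in eight 1:2 steps from 400 nM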
In simple prose, pKd is minus the logarithm base ten of a concentration in moles per litre.

Look up pKd: 40596p1.G10 (scFv, V domains shown, tested as scFv-Fc supernatant) VH: EVQLLESGGGLVQPGGSLRLSCAAPGFDFSKNAMSWVRQAPGKGLEYVAGSGWSGSFIFYADSVKGRFTVSRDNSENTLYLQMSSLRAEDTAVYYCAKNPGFGEMDVWGQGTTVTVSS VL: EIVLTQSPGSLFLSPGERATLTCRASQTIGSNLAWYQQKFGQAPRLLIYGASTRAADIPDRFSGSGSGTEFTLTISSLQSEDFAVYYCQQYNSWPPLTFGGGTKVEIK
7.68

Look up pKd: 40566p1.G9 (scFv, V domains shown, tested as scFv-Fc supernatant) VH: DVQLVESGGGVVRPGESLRLSCAASGFTFDNYDMTWVRQAPGEGLEWVSFISSRGTFTYYADSVKGRFTISRDNSKNTLYLQMNSLRAEDTAIYYCAKDSGEYYFFDYWGLGTLVTVSS VL: EIVMTQSPATLSVSPGERATFSCRASQSVNSKLAWYQQKPGQAPRLLIYGASRRATGIPDRFSGSGSGTEFTLTISSLQSEDFAVYYCQQYYDWPPLTFGGGTKVEIK
8.32

Look up pKd: 40596p1.D2 (scFv, V domains shown, tested as scFv-Fc supernatant) VH: EVQLLESGGGLVQPGGSLRLSCAASGFDFSKNAMSWVRQAPGKGLEYVAGSGWSGSFIFYADSVKGRSTVSRDNSENTLYLQMSSLRAEDTAVYYCAKNPGFGEMDVWGQGTTVTVSS VL: ELVLTQSPGSLFLSPGERATLTCRASQTIGSNLAWYQQKFGQAPRLLIYGASTRAADIPDRFSGSGSGTEFTLTISSLQSEDFAVYYCQQYNSWPPLTFGGGTKVEIK
7.72
